Source listed as patent US20160369011A1.

- ASSAY TARGET: human CA9 (carbonic anhydrase IX) (human, UniProt Q16790 38-414)
- ASSAY NAME: BIAcore T100, mAb captured on anti-human IgG, antigen as analyte, 1:1 model; mAb purified by the decapping method (Decapped)

[
  {
    "BINDER": "zu155D5-1 (antibody, human IgG1, kappa, V domains shown, Humanized 155D5, human IgG1 kappa; Tested both protein A purified (Cys80 capped) and decapped; also called zu155D5-CXXF; zu155D5-1 (huVK1-5)) VH: QVQLVESGGGLVQPGGSLRLSCSASGFSLNSYAMIWVRQAPGKGLEYIGFITTGGTTYYADSVKGRFTISRDNSKNTLYLQMNSLRAEDTAVYYCARDRVKSYDDYGDLDAFEPWGQGTLVTVSS VL: DIQMTQSPSTLSASVGDRVTITCQASQSISSYLAWYQQKPGKAPKLLIYYASTLASGVPSRFSGSGSGTEFTLTISSLQCDDFATYYCLGVYGYSFDDGIAFGGGTKVEIKR",
    "Kd, nM": 0.5
  }
]
